This collection of values is drawn from patent US9839642B2.

STUDY_SYSTEM: NDM-1 (Klebsiella pneumoniae, UniProt C7C422)
Sequence (C7C422 29-270, looked up, species assumed): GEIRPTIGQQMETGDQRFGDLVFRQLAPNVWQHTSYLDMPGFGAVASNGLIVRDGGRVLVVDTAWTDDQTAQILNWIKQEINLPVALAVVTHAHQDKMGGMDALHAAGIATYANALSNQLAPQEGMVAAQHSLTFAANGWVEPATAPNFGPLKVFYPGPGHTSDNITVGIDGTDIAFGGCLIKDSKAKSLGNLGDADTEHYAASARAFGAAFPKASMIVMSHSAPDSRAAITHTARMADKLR
EXPERIMENT: Enzyme activity: determination of IC50, fluorescence assay with CCF2-FA substrate
Type: biochemical
PROTOCOL_CONDITIONS: enzyme 1 pM, CCF2-FA 1.25 μM, 2 hours at 25° C.; read-out: NDM1 IC50
pIC50: −log10 of the molar value.
MEASURED_PARAMETER: pIC50

- CC[C@H](C(=O)O)[C@@H](c1nnn[nH]1)[C@@H](C)c1ccccc1: 6.28
- COCCC[C@H](C(=O)O)[C@H](Cc1ccccc1)c1nnn[nH]1: 7.01
- CC(C)C[C@H](C(=O)O)[C@H](Cc1ccc(CN)c(F)c1)c1nnn[nH]1: 6.28
- CC(C)C[C@H](C(=O)O)[C@H](Cc1ccc(-c2ccnc(N)c2)cn1)c1nn[nH]n1: 7.18
- O=C(O)[C@@H](CCF)[C@H](Cc1ccccc1)c1nnn[nH]1: 6.72
- O=C(O)[C@@H](C1CCCC1)[C@H](Cc1ccc(-c2cn[nH]c2)cc1)c1nnn[nH]1: 8.35
- CCC[C@H](C(=O)O)[C@H](Cc1ccc(-c2ccc(-c3nn[nH]n3)cc2)nc1)c1nn[nH]n1: 8.92
- CCC[C@H](C(=O)O)[C@H](Cc1ccc(N)cn1)c1nnn[nH]1: 6.64

* * *

STUDY_SYSTEM: VIM-1 (Pseudomonas aeruginosa, UniProt A0A0F7KYQ8)
EXPERIMENT: Enzyme activity: determination of IC50, fluorescence assay with CCF2-FA substrate
Assay type: biochemical
PROTOCOL_CONDITIONS: VIM-1 enzyme 30 pM, CCF2-FA 1.25 μM, 2 hours at 25° C.; read-out: VIM1 IC50
Catalogue of IC50 readings, one per entry.
MEASURED_PARAMETER: IC50 (nM)

- CCC[C@H](C(=O)O)[C@H](Cc1ccccc1-c1ccc(N)nc1)c1nn[nH]n1 [Example 398]: 10
- CC(C)C[C@H](C(=O)O)[C@H](Cc1ccc(Oc2cccc3c2CCCN3)nc1)c1nn[nH]n1 [Example 389]: 4.4
- CC(C)C[C@H](C(=O)O)[C@H](Cc1ccc(N2CCCC(C(C)(C)N)C2)nc1)c1nnn[nH]1 (stereo partly shown) [Example 322]: 11
- CCC[C@H](C(=O)O)[C@H](Cc1ccc(C2CCNCC2)cc1)c1nnn[nH]1 [Example 412]: 4.49

* * *

System: Klebsiella pneumoniae expressing VIM-1 (IHMA599644)
EXPERIMENT: Antibiotic potentiation activity: synergistic concentration (MITC95) with imipenem, growth by OD600
Assay type: cell-based
PROTOCOL_CONDITIONS: 95% inhibition of bacterial growth, strain IHMA599644
MEASURED_PARAMETER: VIM1 KP599644 MITC95

- CCCC[C@@H](C(=O)O)[C@@H](Cc1ccc(-c2ccccc2)cc1)c1nn[nH]n1 [Example 188]: >200 µM
- CCC[C@H](C(=O)O)[C@H](Cc1ccc(-c2cccc3c2CNC3=O)cc1)c1nnn[nH]1 [Example 238]: 200 µM
- CC(C)[C@H](C(=O)O)[C@H](Cc1ccccc1)c1nnn[nH]1 [Example 20]: 69 µM
- CC(C)[C@H](C(=O)O)[C@H](Cc1ccc(C2=CCNC2)cc1)c1nnn[nH]1 [Example 60]: 4.7 µM
- CCCC(C)[C@H](C(=O)O)[C@H](Cc1ccccc1)c1nnn[nH]1 (stereo partly shown) [Example 18]: 200 µM
- CC(C)C[C@H](C(=O)O)[C@H](Cc1ccc(Br)cc1)c1nnn[nH]1 [Example 25]: 12.5 µM
- CC(C)C[C@H](C(=O)O)[C@H](Cc1ccc(-c2ccc(CN)cc2)cn1)c1nn[nH]n1 [Example 174]: 25 µM
- CCC[C@H](C(=O)O)[C@H](Cc1ccc(-c2ccc(CN)cc2)cc1)c1nn[nH]n1 [Example 209]: 12.5 µM
- CCC[C@H](C(=O)O)[C@H](Cc1ccc(-c2ccc(-c3nn[nH]n3)cc2)nc1)c1nn[nH]n1 [Example 97]: 200 µM
- CCC[C@H](C(=O)O)[C@H](Cc1ccc(N2CCNCC2)nc1)c1nnn[nH]1 [Example 145]: 75 µM
- CC(C)[C@H](C(=O)O)[C@H](Cc1ccc(NCCO)cn1)c1nnn[nH]1 [Example 139]: 12.5 µM
- CCC[C@H](C(=O)O)[C@H](Cc1ccc(C#N)cc1)c1nn[nH]n1 [Example 40]: 25 µM
- CC(C)C[C@H](C(=O)O)[C@H](Cc1ccc(C2=CCNCC2)cn1)c1nn[nH]n1 [Example 170]: 12.5 µM
- CC(C)CCC[C@H](C(=O)O)[C@H](Cc1ccccc1)c1nnn[nH]1 [Example 1]: >200 µM
- CCC[C@H](C(=O)O)[C@H](Cc1ccc(-c2ccc3c(c2)CNC3=O)cc1)c1nnn[nH]1 [Example 234]: 50 µM
- O=C(O)[C@@H](CC(F)F)[C@H](Cc1ccccc1)c1nnn[nH]1 [Example 22]: 50 µM
- CCC[C@H](C(=O)O)[C@H](Cc1ccc(CN2CCNCC2)cc1)c1nnn[nH]1 [Example 55]: 25 µM
- O=C(O)[C@@H](Cc1ccccc1)[C@H](Cc1ccccc1)c1nnn[nH]1 [Example 3]: >200 µM
- CC(C)C[C@H](C(=O)O)[C@H](Cc1ccc(C2=CCNC2)nc1)c1nn[nH]n1 [Example 181]: 75 µM
- CC(C)[C@H](C(=O)O)[C@H](Cc1ccc(C2=CCNC2)nc1)c1nnn[nH]1 [Example 64]: 12.5 µM
- CCC[C@H](C(=O)O)[C@H](Cc1ccc(-c2ccc(N)nc2)cn1)c1nnn[nH]1 [Example 167]: 100 µM
- CCC[C@@H](C(=O)O)[C@H](Cc1ccccc1)c1nnn[nH]1 [Example 5]: 200 µM
- CC(C)[C@H](C(=O)O)[C@H](Cc1ccc(-c2ccc(N)nc2)cc1)c1nnn[nH]1 [Example 73]: 37.5 µM
- CCC[C@H](C(=O)O)[C@H](Cc1ccccc1)c1nnn[nH]1 [Example 4]: 50 µM
- CCCC[C@@H](C(=O)O)[C@@H](Cc1ccc(-c2ccc(S(N)(=O)=O)cc2)cc1)c1nn[nH]n1 [Example 184]: >200 µM

* * *

STUDY_SYSTEM: IMP-1 (Serratia marcescens)
Sequence (P52699 19-246, looked up, species assumed): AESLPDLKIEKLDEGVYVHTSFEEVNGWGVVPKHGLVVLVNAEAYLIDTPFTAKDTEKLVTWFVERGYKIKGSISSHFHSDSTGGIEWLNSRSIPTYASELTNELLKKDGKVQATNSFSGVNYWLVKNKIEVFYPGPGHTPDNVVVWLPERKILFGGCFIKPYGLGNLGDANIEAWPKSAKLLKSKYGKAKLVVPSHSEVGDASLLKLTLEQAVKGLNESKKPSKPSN
EXPERIMENT: Enzyme activity: determination of IC50, fluorescence assay with CCF2-FA substrate
Format: biochemical
PROTOCOL_CONDITIONS: IMP-1 enzyme 2 pM, CCF2-FA 1.25 μM, 2 hours at 25° C.; read-out: IMP1 IC50
Catalogue of IC50 readings, one per entry.
MEASURED_PARAMETER: IC50 (nM)

- CC(C)C[C@H](C(=O)O)[C@H](Cc1ccc(N2CC3(CNC(=O)C3)C2)nc1)c1nnn[nH]1: 1100
- CC(C)C[C@H](C(=O)O)[C@H](Cc1ccc(N2CC(O)(C(F)(F)F)C2)nc1)c1nnn[nH]1: 200
- CCC[C@H](C(=O)O)[C@H](Cc1ccc(C(=O)N2CCNCC2)cc1)c1nnn[nH]1: 520
- CC(C)C[C@H](C(=O)O)[C@H](Cc1ccc(Oc2cccc3c2CCNC3)nc1)c1nn[nH]n1: 340
- CCC[C@H](C(=O)O)[C@H](Cc1ccc(C2CCN(C)CC2)cc1)c1nn[nH]n1: 2100

* * *

STUDY_SYSTEM: IMP-1 (Serratia marcescens)
EXPERIMENT: Enzyme activity: determination of IC50, fluorescence assay with CCF2-FA substrate
Format: biochemical
PROTOCOL_CONDITIONS: IMP-1 enzyme 2 pM, CCF2-FA 1.25 μM, 2 hours at 25° C.; read-out: IMP1 IC50
pIC50: −log10 of the molar value.
MEASURED_PARAMETER: pIC50

* CNC(=O)C1CCN(c2ccc(C[C@H](c3nnn[nH]3)[C@H](CC(C)C)C(=O)O)cn2)C1 (stereo partly shown) [Example 305] | 6.60
* CCC[C@H](C(=O)O)[C@H](Cc1ccc(C2CCNC2)cc1)c1nnn[nH]1 (stereo partly shown) [Example 413] | 5.96
* CC(C)(C)[C@H](C(=O)O)[C@H](Cc1ccc(NC(=N)N)nc1)c1nnn[nH]1 [Example 422] | 6.98
* CC(C)(C)[C@H](C(=O)O)[C@H](Cc1ccc(O)nc1)c1nnn[nH]1 [Example 421] | 6.81
* CCC[C@H](C(=O)[O-])[C@H](Cc1cc[n+](C)cc1)c1nnn[nH]1 [Example 417] | 4.96
* CCC[C@H](C(=O)O)[C@H](Cc1ccc(C2(O)CCNC2)cc1)c1nnn[nH]1.O=C(O)C(F)(F)F (stereo partly shown) [Example 432, 2,2,2-trifluoroacetate] | 6.00
* CCC[C@H](C(=O)O)[C@H](C[C@@H](C)c1ccccc1)c1nnn[nH]1 [Example 265] | 5.74
* CCC[C@H](C(=O)O)[C@H](Cc1ccc2c(c1)CNC2)c1nnn[nH]1 [Example 437] | 4.94
* CCC[C@H](C(=O)O)[C@H](Cc1cccc(-c2ccc(C(N)=O)cc2)c1)c1nn[nH]n1 [Example 351] | 7.62
* CC(C)C[C@H](C(=O)O)[C@H](Cc1ccc(N2CCC(CN)C2)nc1)c1nnn[nH]1 (stereo partly shown) [Example 306] | 5.57
